- System: KM12 colon
- protocolDetails: NCI-60 one-dose screen, 48 h
- runParameters: 10 µM unless noted
The panel holds about 83,000 compounds, 20% with a hit somewhere; the sample as a whole holds those more often. Calls of active or inactive are those of the source. The calls were made as follows: active = growth percent below 10; inactive = the rest.
Possible outcomes: true for active, false for inactive

compound: O=C1C=CC(=O)N1c1cccc(Cl)c1
cat: false

compound: COc1cc(OC)cc(C(=O)C[n+]2cccc3cc[nH]c32)c1
cat: false

compound: N=C(N)c1ccc(OCCCCCCCCCCOc2ccc(C(=N)N)cc2)cc1
cat: true

compound: Cc1cc2c(c(C)c1Cl)C(=O)/C(=C/c1ccc(O)c(O)c1)O2
cat: false

compound: CC(=O)[C@@H]1CC[C@]2(CO)CC[C@]3(C)[C@H](CC[C@@H]4[C@@]5(C)CCCNC(C)(C)[C@@H]5CC[C@]43C)[C@@H]12
cat: false

compound: Fc1ccc2c(-c3cncn3CCc3ccccc3)c[nH]c2c1
cat: false

compound: O=C(/C=C/c1ccc(F)cc1)c1ccc(NC(=O)N2CCN(c3cc4c(cc3F)c(=O)c(C(=O)O)cn4C3CC3)CC2)cc1
cat: false

compound: CC(C)(C)CC(C)(C)n1nnnc1C(NC12CC3CC(CC(C3)C1)C2)c1ccccc1 (stereo not drawn)
cat: false

compound: COc1cccc(-c2nc3occn3c2-c2ccnc(NCCNS(=O)(=O)c3cccc4ccccc34)n2)c1
cat: false

compound: COc1cc(-c2cc(-c3ccc(N(C)C)cc3)nc(N3CCOCC3)c2C#N)cc(OC)c1OC
cat: false

compound: N#CC1C(C#N)C(C(=O)c2ccc(Br)cc2)N2c3ccccc3C=CC12 (stereo not drawn)
cat: false

compound: COc1cccc(-c2nc3occn3c2-c2ccnc(NCCCNS(=O)(=O)c3ccc(C(F)(F)F)cc3)n2)c1
cat: false

compound: C=C(C)[C@@H]1CC[C@]2(C(=O)N3CCN(C)CC3)CC[C@]3(C)[C@H](CC[C@@H]4[C@@]5(C)C/C(=C/c6cccnc6)C(=O)C(C)(C)[C@@H]5CC[C@]43C)[C@@H]12
cat: false

compound: CC(=O)N1N=C(c2ccc(-n3ccc(C(F)(F)F)n3)c(F)c2)CC1c1ccc[nH]1 (stereo not drawn)
cat: false

compound: C=C1C(=O)O[C@H]2[C@H]1CC/C(C(=O)NCCCCCNC(=O)/C1=C/CC[C@@]3(C)O[C@H]3[C@H]3OC(=O)C(=C)[C@@H]3CC1)=C\CC[C@@]1(C)O[C@@H]21
cat: false

compound: OC(c1ccc(F)c(C(F)(F)F)c1)c1cnccc1NC1CCCCC1 (stereo not drawn)
cat: false

compound: Cn1c(-c2c(N)n(CCCN3CCOCC3)c3nc(C#N)c(C#N)nc23)nc2ccccc21
cat: false

compound: O=C(N/N=C/c1cc2ccccc2n2nnnc12)Nc1ccccc1
cat: false

---

- System: COLO 205 colon
- protocolDetails: NCI-60 one-dose screen, 48 h
- runParameters: 10 µM unless noted
- Procedure: Cells are grown in 96 well plates and exposed to the test compound for 48 hours. Compounds are tested at a single concentration, which is 10^-5 M for most compounds. The reported endpoint is percent growth (GI% or GIPRCNT), where numbers from 0 - 100% represent growth inhibition, and numbers from -100% - 0 represent cell death. For example, a value of 40 represents 60% growth inhibition. A value of 0 means no net growth occurred over the course of the experiment. […]
About 83,000 compounds went through this panel and 20% of them were active in at least one assay; those are over-represented in the sample as a whole. Active and inactive are the calls of the source. The calls were made as follows: active = growth percent below 10; inactive = the rest.
Possible outcomes: active, inactive

compound: O=C(/C=C/c1ccc(F)cc1)c1ccc(NC(=O)N2CCN(c3cc4c(cc3F)c(=O)c(C(=O)O)cn4C3CC3)CC2)cc1
cat: inactive
//
compound: Cn1c(N2NC(=O)C(N=Nc3ccc(S(N)(=O)=O)cc3)C2=O)nc(-c2ccco2)c(C#N)c1=O (stereo not drawn)
cat: inactive
//
compound: O=C1Nc2cc(-c3ccc(NC(=O)c4ccccc4)cc3)ccc2/C1=C/c1ccc[nH]1
cat: inactive
//
compound: CNCCn1c(=O)c2cc(OC)c(OC)cc2c2ccc3cc4c(cc3c21)OCO4
cat: active
//
compound: COc1cc(NC(C)CCCNC(=O)CCC(=O)NCCCNCCCCCCCCNCCCNC(=O)CCC(=O)NCCCC(C)Nc2cc(OC)cc3cccnc23)c2ncccc2c1 (stereo not drawn)
cat: inactive
//
compound: NC(=NCCCOc1ccc(F)cc1)Nc1ccc(I)cc1
cat: active
//
compound: COc1cc(C2=NN(C(C)=O)C(c3cc(OC)c(OC)c(OC)c3)C2)ccc1O (stereo not drawn)
cat: active
//
compound: COc1ccc(C(=O)/C=C/c2cc3ccccc3n3nnnc23)cc1
cat: inactive
//
compound: CC1(C)CC[C@]2(C(=O)O)CC[C@]3(C)C(=CC[C@@H]4[C@@]5(C)Cc6c([nH]c7ccccc67)C(C)(C)[C@@H]5CC[C@]43C)[C@@H]2C1
cat: active
//
compound: Cc1nc(N)nc(N[C@@H](C)c2nc3cccc(NCc4ccc(C(=O)NO)cc4)c3c(=O)n2-c2ccccc2)n1
cat: inactive
//
compound: C/C(=N\NC(=O)CSc1nc2ccccc2c(=O)n1CCc1ccc(S(N)(=O)=O)cc1)c1ccccn1
cat: active
//
compound: O=C1c2cccc3c(-c4ccc5c(c4)ncn5C4CCCCC4)ccc(c23)C(=O)N1c1nc2ccccc2s1
cat: inactive
//
compound: COc1cccc(-c2nc3occn3c2-c2ccnc(NCCCNS(=O)(=O)c3ccc(C(F)(F)F)cc3)n2)c1
cat: inactive
//
compound: COc1cc(/C=N/O)nc(-c2ccccn2)c1
cat: inactive
//
compound: CCCC/C=N/NC(=S)NCc1ccccc1
cat: inactive
//
compound: CNC(=O)c1cccc(Cn2nc(C)c(NC(=O)c3ccc(COc4ccc(C(F)(F)F)cc4C)cc3)c2C)c1
cat: inactive
//
compound: COCc1cnccc1NC1CCCCCC1
cat: inactive
//
compound: COc1ccc2c(c1)C(=O)CC(c1ccccc1OC)O2 (stereo not drawn)
cat: inactive
//
compound: O=C(Cc1ccc(/C=C/C(=O)c2nccs2)cc1)Nc1ccccc1
cat: inactive
//
compound: N#C/C(=C\c1ccc(C(F)(F)F)cc1)c1cc2ccccc2[nH]1
cat: inactive
//
compound: Cn1ccnc1C(=O)/C=C/c1ccc(CC(=O)Nc2ccc(Cl)cc2)cc1
cat: active
//
compound: O=C1c2ccc3c4c(ccc(c24)C(=O)N1CCCNCc1ccccc1F)C(=O)N(CCCNCc1ccccc1F)C3=O
cat: active
//
compound: Cn1cc(CC2CC(=O)N(c3ccccc3)C2=O)sc1=NC(=O)c1ccccc1 (stereo not drawn)
cat: inactive
//
compound: COc1ccc(NC(N)=NCCCOc2ccc(F)cc2)cc1
cat: active
//
compound: Cn1ccnc1C(=O)/C=C/c1ccc(CC(=O)NC2CCCCC2)cc1
cat: inactive
//
compound: O=S(=O)(NCCNc1nccc(-c2c(-c3cccc(O)c3)nc3occn23)n1)c1ccc(C(F)(F)F)cc1
cat: inactive
//
compound: CCCCN1C=CCN(CCCC)C1
cat: inactive
//
compound: CC[C@]12C=CCN3CC[C@@]4(c5cc(NC(=O)CCC(=O)O[C@H]6CC[C@H]7[C@@H]8CCC9=CC(=O)CC[C@@H]9[C@H]8CC[C@]67C)c(OC)cc5N(C)[C@H]4[C@@](O)(C(=O)OC)[C@@H]1OC(C)=O)[C@@H]32
cat: inactive
//
compound: COc1ccc(/C=C/c2nc(Nc3ccc(S(=O)(=O)Nc4nc(C)cc(C)n4)cc3)c3ccccc3n2)cc1
cat: inactive
//
compound: [O-][n+]1c(Cl)cc(Cl)c2ccccc21
cat: inactive
//
compound: CN(C)c1ccc(C2C(C#N)=C(/N=C/c3ccccc3)Oc3c2ccc2ccccc32)cc1 (stereo not drawn)
cat: inactive
//
compound: COc1ccc(/C=C/c2nc(Nc3ccc(S(=O)(=O)Nc4cc(C)on4)cc3)c3ccccc3n2)cc1
cat: inactive
//
compound: O=C(c1nnc(Nc2ccccc2Br)o1)c1c[nH]c2ccccc12
cat: inactive
//
compound: Cc1cc2c(c(C)c1Cl)C(=O)/C(=C/c1ccc(O)c(O)c1)O2
cat: inactive
//
compound: N#CC1C(C#N)C2c3ccccc3C=CN2C1C(=O)c1ccc(Br)cc1 (stereo not drawn)
cat: inactive
//
compound: COc1ccc(/C=N/NC(=O)c2cnn3c2NC(c2ccccc2)C3)cc1OC (stereo not drawn)
cat: inactive
//
compound: CCCCCOc1ccc(/C=N/Nc2cc(C)nc3ccc(Cl)cc23)cc1
cat: active
//
compound: CCOC(=O)c1cc(C(=O)c2ccc(OC)cc2)n2ccc(/C=C/c3cc[n+](CC(=O)c4ccc(OC)cc4)cc3)cc12
cat: inactive
